- EXPERIMENT_SUMMARY: melting temperature; fluorescence melt of hairpins on a sequencing array, two-state fit, raised by 9.35 °C to match UV melts
- PROTOCOL_CONDITIONS: sodium 0.088 M
Record Criterion met whenever Tm is at 50 °C or higher; record Criterion not met when lower.

Record excerpt, results attached:
SEQ_TEXT	CLASS_NAME
GTTGAAGGAAACCTCAAC (((((.(....).)))))	Criterion not met
GATCTCATTCGAGATC ((((((....))))))	Criterion met
GCTACGCGAAAGCGGCGC ((..(((....)))..))	Criterion met
GTCGTGGGAAACTGCGAC ((((..(....)..))))	Criterion not met
GATCCCAAATGGGATC ((((((....))))))	Criterion met

// query Quick check: does GGTAACGAAAGTTTCACC ((((((....)))..))) have Tm greater than or equal to 50 °C?
// result Criterion not met

// query Could you please find out whether GGTTTGGGAAACCAGATC (.(.(((....))).).) has Tm that meets 50 °C or exceeds it?
// result Criterion not met

// query Decide: Tm of GCACTCGGAAACGAGTAC (.(((((....))))).) >= 50 °C?
// result Criterion not met

// query I'd appreciate it if you could say whether GATGTGGGAAACCACATC (((((((....))))))) has Tm at least equal to 50 °C.
// result Criterion met

// query Given GGGAACGAAAGTTAACCC ((((((....)))..))) , state whether its Tm is at least 50 °C.
// result Criterion not met

// query Has GGTATCGGAAACGATGCC ((.((((....)))).)) a recorded Tm greater than or equal to 50 °C?
// result Criterion met

// query Is it the case that GCAGGGCGAAAGCTGTGC (((..((....))..))) has Tm reaching or exceeding 50 °C?
// result Criterion met

// query State whether the measured Tm reaches 50 °C, counting equality as reaching it, for GACAGCGAAAGCTCTGTC ((((((....)))..)))
// result Criterion not met

// query Assess whether reported Tm for GCGGATTACCGC ((((....)))) sits at 50 °C or higher.
// result Criterion met

// query Exam item: decide whether the reported Tm for GTCATAGGAAACTATGAC (((((((....))))))) is at least 50 °C.
// result Criterion met

// query Test whether the sequence GCAGCGCGAAAGCCTTGC (((..((....))..))) records Tm of 50 °C or higher.
// result Criterion not met

// query Please check the record GTTGAGGAAACTCAAC ((((((....)))))) and state if its Tm is at or above 50 °C.
// result Criterion met
